# Test system: 843126-344-R-J1-PDC complex spheroid viability
# Assay method text: Anticancer human tumor 843126-344-R-J1-PDC patient-derived melanoma cell line growth inhibition [POLQ]
# Recorded conditions: second compound 1 µM; first compound 0.1 µM; hits give low values
Test readout: viability, T/C (%)
Reply with just the number (in %).

Illustrative cases are given below, each with its answer.
IN: Find the measured viability, T/C: item CC[C@@]1(O)C(=O)OCc2c1cc1n(c2=O)Cc2cc3c(CN(C)C)c(O)ccc3nc2-1 + Cc1cccc(N(C)C(=O)C2C(O)CCN2c2nc(C)cc(C(F)(F)F)c2C#N)c1 , target or system 843126-344-R-J1-PDC complex spheroid viability.
OUT: 52.8

IN: Find the measured viability, T/C: item CC1COCCN1c1cc(-c2ccnn2C)c2ccnc(-c3ccn[nH]3)c2n1 (stereo not drawn) + Cc1cccc(N(C)C(=O)C2C(O)CCN2c2nc(C)cc(C(F)(F)F)c2C#N)c1 , target or system 843126-344-R-J1-PDC complex spheroid viability.
OUT: 85

Here is the next item to consider.
IN: Find the measured viability, T/C: item COc1cc(C2c3cc4c(cc3C(OC3OC5COC(C)OC5C(O)C3O)C3COC(=O)C23)OCO4)cc(OC)c1O (stereo not drawn) + COC1C(OC(N)=O)C(O)C(Oc2ccc3c(O)c(NC(=O)c4ccc(O)c(CC=C(C)C)c4)c(=O)oc3c2C)OC1(C)C , target or system 843126-344-R-J1-PDC complex spheroid viability.
OUT: 82.6

---

# Tested on: 843126-344-R-J1-PDC complex spheroid viability
# Assay method text: Anticancer human tumor 843126-344-R-J1-PDC cell line growth inhibition [POLQ];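 note: spheroids exposed to drugs for seven days before readout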
# Recorded conditions: second compound 3.16 µM; first compound 3.16 µM; hits give low values
# Description: Multicellular complex tumor spheroid response to Polymerase (POL) inhibitors (novobiocin, ART-558, RP6685) in combination with a variety of drugs and investigational agents in selected tumor cell lines The POL inhibitors (novobiocin, ART-558, and RP6685) were evaluated both individually and in combination with standard of care and investigational anticancer small molecules within a complex spheroid model of solid tumors. . […]
Test readout: viability, T/C (%)
Reply with just the number (in %).

Illustrative cases are given below, each with its answer.
IN: Fill blank: measured viability, T/C of the compound CC1COCCN1c1cc(C2(O)CC3CCC(C2)O3)c2cnn(-c3ccn[nH]3)c2n1 (stereo unspecified) + Nc1ccc(C#CCN(C(=O)Cc2ncc(C(F)(F)F)cc2C(F)(F)F)c2ccc(F)cc2)nn1 is ____.
OUT: 29.1

IN: Fill blank: measured viability, T/C of the compound CCc1cc2c(N3CCc4c(cc(Cn5ccnc5)cc4-c4cn(C)nc4C(F)(F)F)C3=O)ccnc2c(OC)n1 + COC1C(OC(N)=O)C(O)C(Oc2ccc3c(O)c(NC(=O)c4ccc(O)c(CC=C(C)C)c4)c(=O)oc3c2C)OC1(C)C is ____.
OUT: 67.6

IN: Fill blank: measured viability, T/C of the compound O=C(Nc1ccc(O)c(NS(=O)(=O)c2ccc(F)cc2)c1)c1ccc(-c2ccccc2)cc1 + Nc1ccc(C#CCN(C(=O)Cc2ncc(C(F)(F)F)cc2C(F)(F)F)c2ccc(F)cc2)nn1 is ____.
OUT: 78.8

IN: Fill blank: measured viability, T/C of the compound CC1COCCN1c1cc(C2(S(C)(=N)=O)CC2)nc(-c2ccnc3[nH]ccc23)n1 (stereo unspecified) + Nc1ccc(C#CCN(C(=O)Cc2ncc(C(F)(F)F)cc2C(F)(F)F)c2ccc(F)cc2)nn1 is ____.
OUT: 69.8

IN: Fill blank: measured viability, T/C of the compound CNCc1ccc(-c2[nH]c3cc(F)cc4c3c2CCNC4=O)cc1 + COC1C(OC(N)=O)C(O)C(Oc2ccc3c(O)c(NC(=O)c4ccc(O)c(CC=C(C)C)c4)c(=O)oc3c2C)OC1(C)C is ____.
OUT: 82.2

Further cases:
IN: Fill blank: measured viability, T/C of the compound COc1ccc([C@@H](O)c2cc(-c3ncnc4cc(N5CCOCC5)ccc34)c(F)cc2Cl)nn1 + COC1C(OC(N)=O)C(O)C(Oc2ccc3c(O)c(NC(=O)c4ccc(O)c(CC=C(C)C)c4)c(=O)oc3c2C)OC1(C)C is ____.
OUT: 85

IN: Fill blank: measured viability, T/C of the compound CCc1cc2c(N3CCc4c(cc(Cn5ccnc5)cc4-c4cn(C)nc4C(F)(F)F)C3=O)cc(C)nc2c(OC)n1 + Cc1cccc(N(C)C(=O)C2C(O)CCN2c2nc(C)cc(C(F)(F)F)c2C#N)c1 is ____.
OUT: 77.8

IN: Fill blank: measured viability, T/C of the compound CC(C)n1c(=O)n(C)c2cnc3cc(F)c(-c4ccc(OCCCN5CCCCC5)nc4)cc3c21 + COC1C(OC(N)=O)C(O)C(Oc2ccc3c(O)c(NC(=O)c4ccc(O)c(CC=C(C)C)c4)c(=O)oc3c2C)OC1(C)C is ____.
OUT: 77.3
